Please go through the items and note down their averaged percent cytotoxicity.
tested on: MCF-7; test: Complement dependent cytotoxicity (CDC); type: cell-based, human
Where no end group is shown, it is not given here.
One number for each entry, in %.

Would you mind listing averaged percent cytotoxicity for each of the following sequences?
1. LDVVLAWRDGLSGAS [Peptide G2, LDVVLAWRDGLSGAS]
2. GGIYWRYDIYWRYDIYWRYD (Novel Sequence) [Peptide P2, elsewhere called YYRYD motif]
3. GVVWRYTAPVHLGDG [Peptide G1, GVVWRYTAPVHLGDG]
4. GGIYYRYDIYYRYDIYYRYD (Novel Sequence) [Peptide P3]

[out]
1. 15
2. 29
3. 20
4. 56
